B1: Twister Ribozyme (parent)
chain: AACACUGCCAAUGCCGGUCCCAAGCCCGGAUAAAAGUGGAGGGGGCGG

# Variants of: B1
# Assay Name: self-cleavage, relative activity (ratio to wild type); higher = more cleavage; co-transcriptional
// bucketize self-cleavage: bottom: < 0.09; middle: ≥ 0.09 and < 0.6; top: ≥ 0.6

> print(dat)
    mutant.label  group.label
 1          A32C          top
 2     C15G G28U          top
 3     G24A G42A       bottom
 4      C5G A11G          top
 5     U12C G13C       middle
 6     A11G G24A       bottom
 7      C8U A35G       middle
 8      A4C U18C       bottom
 9      U6A C20A       bottom
10     A32C G41C       middle
11     C21G G29A       bottom
12      C9A C46U          top
13     U12C U37A          top
14      A1C A35C       middle
15     U12G A33U          top
16      C3G G28A       middle
17      G7C C20G       bottom
18      G7U U12A       bottom
19      A1U G13C       bottom
20     A10C G45U          top
21      U6A U37G       middle
22      A1C C27A       middle
23     A30U A40C       middle
24      G7A G29C       middle
25     A32U G36A          top
26     A11U G39A          top

Taken from the RNAGym collection of RNA variant scans (doi:10.7554/elife.80360).
